B1: EHEE_rd2_0196 (parent)
chain: TETRTFDSEEEAKKAQKEAEKQGRTVTITRRDDRWEVRFD

variants of: B1; assay: folding stability dG (cDNA display proteolysis); higher = more stable; conditions: PBS, room temperature
assay-endpoint: folding stability dG (kcal/mol)
One number for each entry, in kcal/mol.

{"mutant-name": "T25R", "folding stability dG, kcal/mol": 3.32}

Hi team, please reply with folding stability dG for each item in this list.
1. Q16I
2. F39Q

Outgoing:
1: 2.97; 2: 2.02

All figures here come from the MegaScale stability set (Tsuboyama et al. 2023).
